target: Solute carrier family 22 member 3 (Homo sapiens, UniProt O75751); experiment: TP_TRANSPORTER: inhibition of MPP+ uptake in OCT3-expressing HEK293 cells
Sequence (O75751 whole entry): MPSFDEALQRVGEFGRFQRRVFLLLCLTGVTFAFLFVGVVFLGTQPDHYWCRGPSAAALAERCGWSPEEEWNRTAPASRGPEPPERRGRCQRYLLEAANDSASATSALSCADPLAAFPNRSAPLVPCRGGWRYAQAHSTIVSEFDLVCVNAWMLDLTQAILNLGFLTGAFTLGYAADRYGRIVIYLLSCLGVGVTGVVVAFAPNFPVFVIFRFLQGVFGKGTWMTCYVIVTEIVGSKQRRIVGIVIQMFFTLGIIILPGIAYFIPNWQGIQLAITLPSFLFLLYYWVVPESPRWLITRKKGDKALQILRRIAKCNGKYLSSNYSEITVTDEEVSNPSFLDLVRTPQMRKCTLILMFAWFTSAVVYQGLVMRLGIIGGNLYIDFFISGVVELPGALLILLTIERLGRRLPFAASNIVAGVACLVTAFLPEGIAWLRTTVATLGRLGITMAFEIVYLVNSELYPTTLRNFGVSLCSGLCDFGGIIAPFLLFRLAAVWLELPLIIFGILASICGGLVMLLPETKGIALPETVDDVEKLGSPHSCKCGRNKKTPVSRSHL
testReadout: Ki (nM)
Express the result in nM but write the number alone.

[
  {
    "molecule": "COc1cc2c(c(OC)c1OC)-c1ccc(OC)c(=O)cc1[C@@H](NC(C)=O)CC2",
    "testReadout": "Ki",
    "unitAbbrev": "nM",
    "testValue": 120
  }
]

Next molecule, please.
(Q) Record request: Ki value, item `CC(C)N1/C(=C\c2cc[n+](C(C)C)c3ccccc23)C=Cc2ccccc21`
(A) 15
